- measured-target: T1, Cynomolgus monkey glycophorin A on Cynomolgus monkey red blood cells or red blood cell membranes (Cynomolgus monkey)
- T1 construct: whole, on cells; also called Cyno RBC; Cynomolgus monkey RBC membranes
- experiment-description: Fab on intact cyno RBC, unbound Fab by ELISA; 0 min after 200-fold dilution

binder	unit-abbreviation	percentage of input antibody bound
TPP-7792, affinity matured 6C12 Fab (Fab, V domains shown, Tested as Fab with a 6xHIS tag) VH: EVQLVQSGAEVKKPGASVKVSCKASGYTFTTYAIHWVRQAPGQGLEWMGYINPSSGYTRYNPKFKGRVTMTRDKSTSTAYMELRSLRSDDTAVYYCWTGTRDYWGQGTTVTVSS VL: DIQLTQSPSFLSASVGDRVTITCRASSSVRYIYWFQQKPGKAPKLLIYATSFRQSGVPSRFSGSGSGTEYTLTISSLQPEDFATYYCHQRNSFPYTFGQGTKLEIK	%	96
TPP-7793, affinity matured 6C12 Fab (Fab, V domains shown, Tested as Fab) VH: EVQLVQSGAEVKKPGASVKVSCKASGYTFTRYTIHWVRQAPGQGLEWMGYINPSSGYTRYNPKFKGRVTMTRDKSTSTAYMELRSLRSDDTAVYYCWTGTRDYWGQGTTVTVSS VL: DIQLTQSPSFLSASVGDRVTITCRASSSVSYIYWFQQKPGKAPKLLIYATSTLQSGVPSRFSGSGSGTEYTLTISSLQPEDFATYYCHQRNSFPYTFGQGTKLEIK	%	58
